# System: 786-0 renal
# METHOD_DESCRIPTION: NCI tumour cell line growth inhibition, 48 h

>  <QUERY_SMILES>
CCOC(=O)c1nc2cc(F)c(F)cc2nc1NCc1cc(OC)c(OC)c(OC)c1

>  <TGT>
786-0 renal

>  <UNIT_SYMBOL>
µM

>  <COMPARISON_OPERATOR>
>

>  <TGI>
100

$$$$
>  <QUERY_SMILES>
O=C1C(c2ccc(Cl)cc2)=[N+]([O-])c2ccccc21

>  <TGT>
786-0 renal

>  <UNIT_SYMBOL>
µM

>  <COMPARISON_OPERATOR>
=

>  <TGI>
30.7

$$$$
>  <QUERY_SMILES>
O=S(=O)(O)c1cccc2ccc(O)c(N=Nc3ccc(S(=O)(=O)c4ccc(N=Nc5c(O)ccc6cccc(S(=O)(=O)O)c56)cc4)cc3)c12

>  <TGT>
786-0 renal

>  <UNIT_SYMBOL>
µM

>  <COMPARISON_OPERATOR>
>

>  <TGI>
100

$$$$
>  <QUERY_SMILES>
Nc1c(O)c2c(c(O)c1Cl)C(=O)C=CC2=O

>  <TGT>
786-0 renal

>  <UNIT_SYMBOL>
µM

>  <COMPARISON_OPERATOR>
=

>  <TGI>
25.5

$$$$
>  <QUERY_SMILES>
c1ccc2nc3c(nc2c1)sc1nc2ccccc2n13

>  <TGT>
786-0 renal

>  <UNIT_SYMBOL>
µM

>  <COMPARISON_OPERATOR>
>

>  <TGI>
100

$$$$
>  <QUERY_SMILES>
CCNCCNc1cc(-c2ccc(Cl)cc2)c(C#N)c2nc3ccccc3n12

>  <TGT>
786-0 renal

>  <UNIT_SYMBOL>
µM

>  <COMPARISON_OPERATOR>
=

>  <TGI>
2.87

$$$$
>  <QUERY_SMILES>
COc1cccc(-c2nc(-c3ccc(NS(=O)(=O)c4ccccc4)cc3)[nH]c2-c2ccnc(Br)c2)c1

>  <TGT>
786-0 renal

>  <UNIT_SYMBOL>
µM

>  <COMPARISON_OPERATOR>
>

>  <TGI>
100

$$$$
>  <QUERY_SMILES>
CC[C@@]1(O)C(=O)OCc2c1cc1n(c2=O)Cc2c-1nc1ccccc1c2C=Nc1ccc(N[C@@H]2c3cc4c(cc3[C@@H](c3cc(OC)c(O)c(OC)c3)[C@H]3C(=O)OC[C@@H]32)OCO4)cc1

>  <TGT>
786-0 renal

>  <UNIT_SYMBOL>
µM

>  <COMPARISON_OPERATOR>
=

>  <TGI>
0.329

$$$$
>  <QUERY_SMILES>
CCCCn1c(C)c(C)c2c1NN=C(C#N)S2(=O)=O

>  <TGT>
786-0 renal

>  <UNIT_SYMBOL>
µM

>  <COMPARISON_OPERATOR>
>

>  <TGI>
100

$$$$

* * *

# System: NCI-H522 lung
# METHOD_DESCRIPTION: NCI tumour cell line growth inhibition, 48 h
Reported TGI values for the following molecules.

>  <MOLECULE>
Cc1cc2c(c(C=Nc3ccc(N(C)C)cc3)c1)OC1(C=C2)Oc2ccccc2C(=O)N1C (stereo unspecified)

>  <TGI>
36.9 µM

$$$$
>  <MOLECULE>
Nc1ccc(CCN2CCN(c3cccc(C(F)(F)F)c3)CC2)cc1

>  <TGI>
> 100 µM

$$$$
>  <MOLECULE>
CN1NC2=NCCN=C3NN(C)C(=NCCN=C1S2)S3

>  <TGI>
> 100 µM

$$$$
>  <MOLECULE>
CCOC(=O)CCN1C(=O)c2ccc(NC(=O)C(=O)O)cc2S1(=O)=O

>  <TGI>
> 100 µM

$$$$
>  <MOLECULE>
CCCC[P+](CCCC)(CCCC)C(C(=O)OC)C(C(=O)OC)=C1SC(C(=O)OC)=C(C(=O)OC)S1 (stereo unspecified)

>  <TGI>
> 100 µM

$$$$
>  <MOLECULE>
O=C1c2scc(-c3ccc(F)cc3)c2-n2cccc21

>  <TGI>
> 100 µM

$$$$
>  <MOLECULE>
CSC1=C(C)S/C(=C\c2ccc(/C=C3\SC(C)=C(SC)S3)cc2)S1

>  <TGI>
> 100 µM

$$$$
>  <MOLECULE>
O=C(c1ccccc1)c1ccc2cccc(O)c2n1

>  <TGI>
39.8 µM

$$$$
>  <MOLECULE>
Cc1ccc(C2=[N+]([O-])c3ccccc3C2=O)cc1

>  <TGI>
32.4 µM

$$$$
>  <MOLECULE>
O=c1[nH]nc(Cc2ccccc2)n1N=C1CCCCC1

>  <TGI>
> 100 µM

$$$$
>  <MOLECULE>
Cc1ccc(/C(O)=C/c2nc3ccccc3nc2NC23CC4CC(CC(C4)C2)C3)cc1

>  <TGI>
> 10 µM

$$$$
